testedOn: HLA-A*01:01
experimentSummary: IEDB peptide-MHC binding, purified MHC/direct/fluorescence; filed as Kd, often an IC50 or EC50 that approximates it; bounds were set here for any values at or beyond the usual limits of such assays
measurementParameters: source organism: Salmonella enterica
pKd: −log10 of the molar value.
Consider the following sequences and their measured pKd readings.

Lab note: `RKAGVNQAK` gave pKd of ≤ 4.70

Lab note: `MGKTITDVK` gave pKd of ≤ 4.70

----------
testedOn: HLA-B*08:03
experimentSummary: IEDB peptide-MHC binding, purified MHC/direct/fluorescence; filed as Kd, often an IC50 or EC50 that approximates it; bounds were set here for any values at or beyond the usual limits of such assays
measurementParameters: source organism: Salmonella enterica subsp. enterica serovar Typhimurium str. LT2
pKd: −log10 of the molar value.
metric: pKd

Lab note: `MGKTITDVK` gave pKd of ≤ 4.70

Numbers sourced from the Immune Epitope Database (IEDB).
